- assay.overview: Ibrutinib and SMT-conjugate pharmacokinetics in human subjects (plasma of patients A and B)
- cond: human, in vivo, 420 mg, Concentration, patient A, sample ID 5, T 0.5 h, 1xdd 420mg, group abs
measured.attribute: concentration at 0.5 h (nM)

C=CC(=O)N1CCC[C@@H](n2nc(-c3ccc(Oc4ccccc4)cc3)c3c(N)ncnc32)C1 [Ibrutinib, reference compound]; 11.8

---

- assay.overview: Ibrutinib and SMT-conjugate pharmacokinetics in human subjects (plasma of patients A and B)
- cond: human, in vivo, 560 mg, Concentration, patient B, sample ID 17, T 3.9 h, 1xdd 560mg, group max
measured.attribute: concentration at 3.9 h (nM)

C=CC(=O)N1CCC[C@@H](n2nc(-c3ccc(Oc4ccccc4)cc3)c3c(N)ncnc32)C1 [Ibrutinib, reference compound]; 578

---

Measured concentration at 3.9 h by item
- assay.overview: Ibrutinib and SMT-conjugate pharmacokinetics in human subjects (plasma of patients A and B)
- cond: human, 560 mg, Concentration, patient B, sample ID 17, T 3.9 h, 1xdd 560mg, group max
measured.attribute: concentration at 3.9 h (nM)

Nc1ncnc2c1c(-c1ccc(Oc3ccccc3)cc1)nn2[C@@H]1CCCN(C(=O)CCSC[C@H](NC(=O)CC[C@H](N)C(=O)O)C(=O)NCC(=O)O)C1; 1.9
Nc1ncnc2c1c(-c1ccc(Oc3ccccc3)cc1)nn2[C@@H]1CCCN(C(=O)CCSC[C@H](N)C(=O)NCC(=O)O)C1; 226
Nc1ncnc2c1c(-c1ccc(Oc3ccccc3)cc1)nn2[C@@H]1CCCN(C(=O)CCSC[C@H](N)C(=O)O)C1; 143
Nc1ncnc2c1c(-c1ccc(Oc3ccccc3)cc1)nn2[C@@H]1CCCN(C(=O)C(O)CO)C1 (stereo partly shown) [DHI, dihydrodiol-ibrutinib]; 542

---

- assay.overview: Ibrutinib and SMT-conjugate pharmacokinetics in human subjects (plasma of patients A and B)
- cond: human, 560 mg, Concentration, patient B, sample ID 9, T 4.4 h, 1xdd 560mg, group max
Overview of reported concentration at 4.4 h across a group of compounds:
measured.attribute: concentration at 4.4 h (nM)

Nc1ncnc2c1c(-c1ccc(Oc3ccccc3)cc1)nn2[C@@H]1CCCN(C(=O)CCSC[C@H](NC(=O)CC[C@H](N)C(=O)O)C(=O)NCC(=O)O)C1; 0.8
Nc1ncnc2c1c(-c1ccc(Oc3ccccc3)cc1)nn2[C@@H]1CCCN(C(=O)CCSC[C@H](N)C(=O)NCC(=O)O)C1; 88.1
Nc1ncnc2c1c(-c1ccc(Oc3ccccc3)cc1)nn2[C@@H]1CCCN(C(=O)CCSC[C@H](N)C(=O)O)C1; 89.2
Nc1ncnc2c1c(-c1ccc(Oc3ccccc3)cc1)nn2[C@@H]1CCCN(C(=O)C(O)CO)C1 (stereo partly shown) [DHI, dihydrodiol-ibrutinib]; 393

---

- assay.overview: Ibrutinib and SMT-conjugate pharmacokinetics in human subjects (plasma of patients A and B)
- cond: patient A, sample ID 22, T NA, 1xdd 420mg, omitted (no group)
measured.attribute: Concentration

Nc1ncnc2c1c(-c1ccc(Oc3ccccc3)cc1)nn2[C@@H]1CCCN(C(=O)CCSC[C@H](NC(=O)CC[C@H](N)C(=O)O)C(=O)NCC(=O)O)C1; < LLOQ
Nc1ncnc2c1c(-c1ccc(Oc3ccccc3)cc1)nn2[C@@H]1CCCN(C(=O)C(O)CO)C1 (some centres unmarked) [DHI, dihydrodiol-ibrutinib]; < LLOQ
Nc1ncnc2c1c(-c1ccc(Oc3ccccc3)cc1)nn2[C@@H]1CCCN(C(=O)CCSC[C@H](N)C(=O)O)C1; < LLOQ
Nc1ncnc2c1c(-c1ccc(Oc3ccccc3)cc1)nn2[C@@H]1CCCN(C(=O)CCSC[C@H](N)C(=O)NCC(=O)O)C1; < LLOQ
C=CC(=O)N1CCC[C@@H](n2nc(-c3ccc(Oc4ccccc4)cc3)c3c(N)ncnc32)C1 [Ibrutinib, reference compound]; 0.9 nM
